Values were extracted from the supplement of paper PMC10567573.

Readings of protein stability index for the listed variants
B1: PKD2L1 (parent)
chain: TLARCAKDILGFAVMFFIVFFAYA

# Variants of: B1
# assay_procedure: protein stability index of a GFP-peptide fusion (GPS, HEK-293T) (PSI 1-6); higher = more stable;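 further: lentivirally expressed fusions sorted by FACS into six bins by GFP to DsRed ratio, PSI derived from sequencing read proportions per bin multiplied by bin number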
# recorded_conditions: c terminus: a fixed tail appended
measured_quantity: protein stability index

> print(dat)
    variant  test.value
 1     F12I        1.49
 2     F16E         3.1
 3      L2N         2.5
 4      T1A        2.36
 5     I18K        1.71
 6     F21S        2.01
 7      T1D        2.96
 8     A24D         2.9
 9     F16W        3.32
10     G11C        2.06
11     F21M        2.54
12      I9N        1.69
13      A3C        2.83
14     Y23C        3.45
15      T1I           2
16      C5D        2.61
17     I18E           2
18      T1V        2.81
19     F20W        1.56
20      D8G        2.75
21     V14F         2.3
22      A6C        2.87
23     F21W        2.46
24     A24V        1.63
25     F12Q         2.1
26     V14C        2.86
27     Y23N        2.61
28     M15L        1.25
29     A22E        2.82
30     Y23T        2.98
31     G11D        2.28
32     M15Y        1.72
33      D8Q        1.51
34     F20K        2.48
35     V14K        3.08
36      K7W        2.57
37      C5P        1.71
38      I9W        2.43
39      A3L        1.75
40     A13I        1.52
41     V14H        2.85
42     G11R        2.72
43      R4V        4.36
44     F21Q        1.38
45     A22P        4.08
46     L10P         3.1
